# TESTED TARGET: T1, tissue factor (S33 to E251) (Homo sapiens, UniProt P13726)
# T1 construct: tissue factor (TF), residues S33 to E251; the antigen of the antibody D3h44 in PDB 1JPS; The tag was removed with Ulp1; tag-free TF was used; Antigen residues named in the text (S202, K169, P194, I152) follow the numbering of PDB 1JPS, not that of the construct limits; also called TF; antigen; source: E. coli BL21 (DE3), purified (Ni-NTA, SEC); not shown: His6, N-terminal, cleaved; SUMO, …
# T1 sequence (P13726 33-251): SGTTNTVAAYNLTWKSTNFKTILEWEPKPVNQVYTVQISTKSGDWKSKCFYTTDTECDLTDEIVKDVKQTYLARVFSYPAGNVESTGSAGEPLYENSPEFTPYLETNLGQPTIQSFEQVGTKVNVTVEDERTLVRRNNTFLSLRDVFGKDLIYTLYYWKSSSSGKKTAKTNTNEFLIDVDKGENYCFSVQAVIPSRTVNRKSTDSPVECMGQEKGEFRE
# PROTOCOL: SPR; Biacore 8K; TF immobilised on a CM5 chip by amine coupling (450-750 response units); Fab as analyte; single-cycle kinetics, association 120 s, dissociation 1800 s, no regeneration; PBS with 0.005% Tween-20; three measurements
# MEASUREMENT SETUP: both partners purified
QUANTITY NAME: kon (M⁻¹ s⁻¹)
Write down the numeric answer in M⁻¹ s⁻¹ and omit the unit.

Param item = D3h44 Fab H-I59H (Fab, V domains shown, as the heavy chain of m2 (PDB 1JPS chain H) with the stated change; as the light chain of m2 (PDB 1JPS chain L); Tag as for m2; source: ExpiCHO, purified (Ni-NTA, SEC)) VH: EVQLVESGGGLVQPGGSLRLSCAASGFNIKEYYMHWVRQAPGKGLEWVGLIDPEQGNTHYDPKFQDRATISADNSKNTAYLQMNSLRAEDTAVYYCARDTAAYFDYWGQGTLVTVSS VL: DIQMTQSPSSLSASVGDRVTITCRASRDIKSYLNWYQQKPGKAPKVLIYYATSLAEGVPSRFSGSGSGTDYTLTISSLQPEDFATYYCLQHGESPWTFGQGTKVEIK ; retrieve measured kon.
3.6e+06

Param item = D3h44 Fab L-N34D/L-H91S double-point mutant (Fab, V domains shown, as the heavy chain of m2 (PDB 1JPS chain H); as the light chain of m2 (PDB 1JPS chain L) with the stated changes; Tag as for m2; source: ExpiCHO, purified (Ni-NTA, SEC)) VH: EVQLVESGGGLVQPGGSLRLSCAASGFNIKEYYMHWVRQAPGKGLEWVGLIDPEQGNTIYDPKFQDRATISADNSKNTAYLQMNSLRAEDTAVYYCARDTAAYFDYWGQGTLVTVSS VL: DIQMTQSPSSLSASVGDRVTITCRASRDIKSYLDWYQQKPGKAPKVLIYYATSLAEGVPSRFSGSGSGTDYTLTISSLQPEDFATYYCLQSGESPWTFGQGTKVEIK ; retrieve measured kon.
1.2e+06

Param item = D3h44 Fab L-H91N (Fab, V domains shown, as the heavy chain of m2 (PDB 1JPS chain H); as the light chain of m2 (PDB 1JPS chain L) with the stated change; Tag as for m2; source: ExpiCHO, purified (Ni-NTA, SEC)) VH: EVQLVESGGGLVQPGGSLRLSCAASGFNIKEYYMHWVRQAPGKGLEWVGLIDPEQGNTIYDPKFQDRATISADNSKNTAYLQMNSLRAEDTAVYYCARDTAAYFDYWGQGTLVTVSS VL: DIQMTQSPSSLSASVGDRVTITCRASRDIKSYLNWYQQKPGKAPKVLIYYATSLAEGVPSRFSGSGSGTDYTLTISSLQPEDFATYYCLQNGESPWTFGQGTKVEIK ; retrieve measured kon.
1.3e+06

The reported measurements were obtained from paper PMC7567794.
